Origin of values: patent US20250152593A1

- target system: p38 MAPK alpha (Homo sapiens, UniProt Q16539)
- Sequence (Q16539 whole entry): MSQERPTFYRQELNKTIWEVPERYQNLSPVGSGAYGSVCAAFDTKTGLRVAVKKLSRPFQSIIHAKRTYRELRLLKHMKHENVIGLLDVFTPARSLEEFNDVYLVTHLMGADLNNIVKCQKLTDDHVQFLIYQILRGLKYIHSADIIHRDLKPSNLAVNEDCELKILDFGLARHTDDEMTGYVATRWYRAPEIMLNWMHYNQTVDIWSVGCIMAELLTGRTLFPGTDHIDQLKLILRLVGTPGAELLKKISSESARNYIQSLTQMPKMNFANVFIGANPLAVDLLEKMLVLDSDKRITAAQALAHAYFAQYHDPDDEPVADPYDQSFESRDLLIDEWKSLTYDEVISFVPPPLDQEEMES
reported endpoint: IC50 (nM)
Dear colleague, please return just the value in nM, with no unit written.

Tell me the measured IC50 of Cc1ccc(NC(=O)c2cccc(C(F)(F)F)c2)cc1Nc1ncnc2nc(NC3CC3)ncc12 , please.
6.2
